Source listed as the supplement of paper PMC6555819.

Tested on: LXRb homodimer (NR concentration 270 nM)
MEASUREMENT PROTOCOL: PBM binding z-score (relative to random genomic background probes); higher = stronger binding; sequences stand for … in GC…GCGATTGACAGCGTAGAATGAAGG
Label scheme, based on PBM binding z-score: 0 = under -0.5, 1 = from -0.5 up to 0.7, 2 = 0.7 and over

1) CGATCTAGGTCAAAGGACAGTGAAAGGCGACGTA
1
2) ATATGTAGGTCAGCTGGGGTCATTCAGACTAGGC
2
3) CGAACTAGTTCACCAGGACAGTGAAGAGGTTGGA
0
4) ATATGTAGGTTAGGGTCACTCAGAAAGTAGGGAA
2
5) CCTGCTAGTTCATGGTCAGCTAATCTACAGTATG
1
6) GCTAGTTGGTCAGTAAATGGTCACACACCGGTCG
1
7) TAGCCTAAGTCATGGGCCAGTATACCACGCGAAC
0
8) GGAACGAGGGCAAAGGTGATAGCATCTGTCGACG
0

###

Tested on: PPARg:RXRa 270nM:90nM, anti-RXR (NR concentration 270 nM, RXRa partner concentration 90 nM)
MEASUREMENT PROTOCOL: PBM binding z-score (relative to random genomic background probes); higher = stronger binding; sequences stand for … in GC…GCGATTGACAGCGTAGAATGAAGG
Catalogue of PBM binding z-score readings, one per entry.
PROPERTY: PBM binding z-score

1. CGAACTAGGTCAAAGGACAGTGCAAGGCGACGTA
8.27
2. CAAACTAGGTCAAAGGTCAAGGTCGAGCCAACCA
11.5
3. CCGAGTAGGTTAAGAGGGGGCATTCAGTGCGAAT
3.19
4. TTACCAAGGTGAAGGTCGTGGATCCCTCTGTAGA
4.71
5. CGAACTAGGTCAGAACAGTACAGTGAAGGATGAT
4.39
6. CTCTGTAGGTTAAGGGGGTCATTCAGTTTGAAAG
6.91
7. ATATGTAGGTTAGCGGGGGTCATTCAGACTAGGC
6.71
8. TCGAGTAGGTTACGGGGGCAGTCAGGGATGAAGA
5.02
9. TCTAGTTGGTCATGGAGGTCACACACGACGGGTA
3.95
10. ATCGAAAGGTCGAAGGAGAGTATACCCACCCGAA
2.57
11. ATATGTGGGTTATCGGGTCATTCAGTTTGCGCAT
5.78
12. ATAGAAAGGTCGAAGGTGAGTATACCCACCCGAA
5.47
13. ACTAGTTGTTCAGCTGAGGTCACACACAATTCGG
1.94
14. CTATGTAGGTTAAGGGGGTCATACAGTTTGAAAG
8.13
15. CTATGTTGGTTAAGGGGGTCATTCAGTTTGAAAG
5.2
16. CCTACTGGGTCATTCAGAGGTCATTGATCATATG
5.9
17. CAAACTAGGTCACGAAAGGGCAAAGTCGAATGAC
7.9
18. ACTTACGGGTCAAGGAGGTTATAGCACGCGTATA
5.1
19. ATCTCTAGGTAACAAGGTCAGTGAAAGAGAGGAC
3.84
20. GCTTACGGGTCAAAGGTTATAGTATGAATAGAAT
9.15
21. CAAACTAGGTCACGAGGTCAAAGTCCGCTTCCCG
8.27
22. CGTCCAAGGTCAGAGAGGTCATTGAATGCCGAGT
5.05
23. CCTTACGGTTCACTGACAGGTTATAGCATTTGGA
1.08
24. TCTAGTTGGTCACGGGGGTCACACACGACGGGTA
6.09
25. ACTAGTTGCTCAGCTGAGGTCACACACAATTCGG
1.69
